Settings: 298.15 K; 100 kPa; Liquid; Falling or rolling sphere viscometry
Label true for high-side viscosity (at or above 1000 mPa·s) and false for low-side viscosity (below it).

Determine whether this molecule has viscosity no lower than 1000 mPa·s: CCCCC(=O)[O-].CN(C)C(=[NH2+])N(C)C [1,1,3,3-tetramethylguanidinium pentanoate]
false

Determine whether this molecule has viscosity no lower than 1000 mPa·s: CCCCCCCC(=O)[O-].CN(C)C(=[NH2+])N(C)C [1,1,3,3-tetramethylguanidinium octanoate]
false

Determine whether this molecule has viscosity no lower than 1000 mPa·s: CCCCCCC(=O)[O-].CN(C)C(=[NH2+])N(C)C [1,1,3,3-tetramethylguanidinium heptanoate]
true

Determine whether this molecule has viscosity no lower than 1000 mPa·s: CCCC(=O)[O-].CN(C)C(=[NH2+])N(C)C [1,1,3,3-tetramethylguanidinium butanoate]
true

----------
Settings: 318.15 K; 100 kPa; Liquid; Vibrating tube method
± gives the expanded uncertainty stated by the source.
measured property: mass density

Please indicate mass density recorded for CCCCCCC(=O)[O-].CN(C)C(=[NH2+])N(C)C [1,1,3,3-tetramethylguanidinium heptanoate]
968.56 ± 2.1 kg/m3

Please indicate mass density recorded for CCCCCC(=O)[O-].CN(C)C(=[NH2+])N(C)C [1,1,3,3-tetramethylguanidinium hexanoate]
980.29 ± 2.1 kg/m3

Please indicate mass density recorded for CCCC(=O)[O-].CN(C)C(=[NH2+])N(C)C [1,1,3,3-tetramethylguanidinium butanoate]
1014.77 ± 2.1 kg/m3

Please indicate mass density recorded for CCCCC(=O)[O-].CN(C)C(=[NH2+])N(C)C [1,1,3,3-tetramethylguanidinium pentanoate]
993.25 ± 2.1 kg/m3

Please indicate mass density recorded for CCCCCCCC(=O)[O-].CN(C)C(=[NH2+])N(C)C [1,1,3,3-tetramethylguanidinium octanoate]
952.3 ± 2.1 kg/m3

----------
Conditions: 343.15 K; 100 kPa; Liquid; Single path-length method
measured property: speed of sound (m/s)
Numeric answer only, unit m/s assumed.

Please indicate speed of sound recorded for CCCC(=O)[O-].CN(C)C(=[NH2+])N(C)C [1,1,3,3-tetramethylguanidinium butanoate]
1424.1

Please indicate speed of sound recorded for CCCCCCC(=O)[O-].CN(C)C(=[NH2+])N(C)C [1,1,3,3-tetramethylguanidinium heptanoate]
1360.6

Please indicate speed of sound recorded for CCCCCC(=O)[O-].CN(C)C(=[NH2+])N(C)C [1,1,3,3-tetramethylguanidinium hexanoate]
1373.5

Please indicate speed of sound recorded for CCCCC(=O)[O-].CN(C)C(=[NH2+])N(C)C [1,1,3,3-tetramethylguanidinium pentanoate]
1382.7

Please indicate speed of sound recorded for CCCCCCCC(=O)[O-].CN(C)C(=[NH2+])N(C)C [1,1,3,3-tetramethylguanidinium octanoate]
1339.4

----------
Conditions: 323.15 K; 100 kPa; Liquid; Single path-length method
For each of the compounds below, state its speed of sound.
Numeric answer only, unit m/s assumed.

Please indicate speed of sound recorded for CCCCC(=O)[O-].CN(C)C(=[NH2+])N(C)C [1,1,3,3-tetramethylguanidinium pentanoate]
1444.9

Please indicate speed of sound recorded for CCCC(=O)[O-].CN(C)C(=[NH2+])N(C)C [1,1,3,3-tetramethylguanidinium butanoate]
1490.9

Please indicate speed of sound recorded for CCCCCCC(=O)[O-].CN(C)C(=[NH2+])N(C)C [1,1,3,3-tetramethylguanidinium heptanoate]
1429.5

Please indicate speed of sound recorded for CCCCCCCC(=O)[O-].CN(C)C(=[NH2+])N(C)C [1,1,3,3-tetramethylguanidinium octanoate]
1401.6

Please indicate speed of sound recorded for CCCCCC(=O)[O-].CN(C)C(=[NH2+])N(C)C [1,1,3,3-tetramethylguanidinium hexanoate]
1438.7

----------
For each of the molecules below, state its refractive index.
Assay: refractive index (Na D-line) (dimensionless)
Conditions: 338.15 K; 100 kPa; Liquid; Standard Abbe refractometry
A bare number is all that is needed in reply.

Please indicate refractive index recorded for CCCCCCCC(=O)[O-].CN(C)C(=[NH2+])N(C)C [1,1,3,3-tetramethylguanidinium octanoate]
1.4482

Please indicate refractive index recorded for CCCCCC(=O)[O-].CN(C)C(=[NH2+])N(C)C [1,1,3,3-tetramethylguanidinium hexanoate]
1.4528

Please indicate refractive index recorded for CCCC(=O)[O-].CN(C)C(=[NH2+])N(C)C [1,1,3,3-tetramethylguanidinium butanoate]
1.4704

Please indicate refractive index recorded for CCCCC(=O)[O-].CN(C)C(=[NH2+])N(C)C [1,1,3,3-tetramethylguanidinium pentanoate]
1.4615

Please indicate refractive index recorded for CCCCCCC(=O)[O-].CN(C)C(=[NH2+])N(C)C [1,1,3,3-tetramethylguanidinium heptanoate]
1.464

----------
For each of the molecules below, state its refractive index.
Test: refractive index (Na D-line) (dimensionless)
Settings: 318.15 K; 100 kPa; Liquid; Standard Abbe refractometry
Numbers after ± are expanded uncertainties.

Please indicate refractive index recorded for CCCCC(=O)[O-].CN(C)C(=[NH2+])N(C)C [1,1,3,3-tetramethylguanidinium pentanoate]
1.4681 ± 0.01

Please indicate refractive index recorded for CCCCCCC(=O)[O-].CN(C)C(=[NH2+])N(C)C [1,1,3,3-tetramethylguanidinium heptanoate]
1.4707 ± 0.01

Please indicate refractive index recorded for CCCCCCCC(=O)[O-].CN(C)C(=[NH2+])N(C)C [1,1,3,3-tetramethylguanidinium octanoate]
1.4565 ± 0.01

Please indicate refractive index recorded for CCCCCC(=O)[O-].CN(C)C(=[NH2+])N(C)C [1,1,3,3-tetramethylguanidinium hexanoate]
1.4601 ± 0.01

Please indicate refractive index recorded for CCCC(=O)[O-].CN(C)C(=[NH2+])N(C)C [1,1,3,3-tetramethylguanidinium butanoate]
1.4753 ± 0.01

----------
Details: 343.15 K; 100 kPa; Liquid; Falling or rolling sphere viscometry
For each of the molecules below, state its viscosity.
Numeric answer only, unit mPa·s assumed.

Please indicate viscosity recorded for CCCCC(=O)[O-].CN(C)C(=[NH2+])N(C)C [1,1,3,3-tetramethylguanidinium pentanoate]
54

Please indicate viscosity recorded for CCCCCC(=O)[O-].CN(C)C(=[NH2+])N(C)C [1,1,3,3-tetramethylguanidinium hexanoate]
54

Please indicate viscosity recorded for CCCC(=O)[O-].CN(C)C(=[NH2+])N(C)C [1,1,3,3-tetramethylguanidinium butanoate]
65.7

Please indicate viscosity recorded for CCCCCCCC(=O)[O-].CN(C)C(=[NH2+])N(C)C [1,1,3,3-tetramethylguanidinium octanoate]
52.5

Please indicate viscosity recorded for CCCCCCC(=O)[O-].CN(C)C(=[NH2+])N(C)C [1,1,3,3-tetramethylguanidinium heptanoate]
55.8

----------
Details: 333.15 K; 100 kPa; Liquid; Falling or rolling sphere viscometry
For each of the compounds below, state its viscosity.
Numeric answer only, unit mPa·s assumed.

Please indicate viscosity recorded for CCCCCCC(=O)[O-].CN(C)C(=[NH2+])N(C)C [1,1,3,3-tetramethylguanidinium heptanoate]
94.4

Please indicate viscosity recorded for CCCCCCCC(=O)[O-].CN(C)C(=[NH2+])N(C)C [1,1,3,3-tetramethylguanidinium octanoate]
81.2

Please indicate viscosity recorded for CCCCCC(=O)[O-].CN(C)C(=[NH2+])N(C)C [1,1,3,3-tetramethylguanidinium hexanoate]
89.4

Please indicate viscosity recorded for CCCC(=O)[O-].CN(C)C(=[NH2+])N(C)C [1,1,3,3-tetramethylguanidinium butanoate]
114

Please indicate viscosity recorded for CCCCC(=O)[O-].CN(C)C(=[NH2+])N(C)C [1,1,3,3-tetramethylguanidinium pentanoate]
85.2

----------
For each of the molecules below, state its viscosity.
Details: 303.15 K; 100 kPa; Liquid; Falling or rolling sphere viscometry
Numeric answer only, unit mPa·s assumed.

Please indicate viscosity recorded for CCCC(=O)[O-].CN(C)C(=[NH2+])N(C)C [1,1,3,3-tetramethylguanidinium butanoate]
1049

Please indicate viscosity recorded for CCCCC(=O)[O-].CN(C)C(=[NH2+])N(C)C [1,1,3,3-tetramethylguanidinium pentanoate]
561.1

Please indicate viscosity recorded for CCCCCC(=O)[O-].CN(C)C(=[NH2+])N(C)C [1,1,3,3-tetramethylguanidinium hexanoate]
657.8

Please indicate viscosity recorded for CCCCCCCC(=O)[O-].CN(C)C(=[NH2+])N(C)C [1,1,3,3-tetramethylguanidinium octanoate]
506.8

Please indicate viscosity recorded for CCCCCCC(=O)[O-].CN(C)C(=[NH2+])N(C)C [1,1,3,3-tetramethylguanidinium heptanoate]
740.8

----------
Conditions: 293.15 K; 100 kPa; Liquid; Falling or rolling sphere viscometry
measured property: viscosity (mPa·s)
Numeric answer only, unit mPa·s assumed.

Please indicate viscosity recorded for CCCCCCC(=O)[O-].CN(C)C(=[NH2+])N(C)C [1,1,3,3-tetramethylguanidinium heptanoate]
1827

Please indicate viscosity recorded for CCCCCC(=O)[O-].CN(C)C(=[NH2+])N(C)C [1,1,3,3-tetramethylguanidinium hexanoate]
1534

Please indicate viscosity recorded for CCCC(=O)[O-].CN(C)C(=[NH2+])N(C)C [1,1,3,3-tetramethylguanidinium butanoate]
2480

Please indicate viscosity recorded for CCCCC(=O)[O-].CN(C)C(=[NH2+])N(C)C [1,1,3,3-tetramethylguanidinium pentanoate]
1241

Please indicate viscosity recorded for CCCCCCCC(=O)[O-].CN(C)C(=[NH2+])N(C)C [1,1,3,3-tetramethylguanidinium octanoate]
1093
